# pIC50 per entry
# Subject of test: biotinylated human Gal-3 (hGal-3) (Homo sapiens)
# Sequence (P17931 whole entry): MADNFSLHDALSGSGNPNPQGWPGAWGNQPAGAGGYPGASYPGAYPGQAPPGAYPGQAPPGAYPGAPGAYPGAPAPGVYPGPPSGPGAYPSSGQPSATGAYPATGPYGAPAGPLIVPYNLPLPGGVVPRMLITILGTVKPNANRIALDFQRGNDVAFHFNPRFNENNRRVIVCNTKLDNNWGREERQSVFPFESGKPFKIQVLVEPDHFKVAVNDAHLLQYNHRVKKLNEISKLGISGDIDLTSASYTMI
# Test method notes: Competitive binding assay: biotinylated hGal-3 binding to microplate-adsorbed asialofetuin (ASF), spectrophotometric
# Assay context: Table 6; hGal-3; read-out: IC50 (Gal-3 inhibition)
Expect pIC50 as a plain number equal to -log10 of the molar concentration.

Sample records with pIC50:
{"Molecule": "CC(C)(O)C(S[C@@H]1O[C@H](CO)[C@H](O)[C@H](n2cc(-c3cc(F)c(F)c(F)c3)nn2)[C@H]1O)C(=O)N1CCCCC1 (some centres unmarked)", "Subject of test": "biotinylated human Gal-3 (hGal-3) (Homo sapiens)", "pIC50": 7.15}
{"Molecule": "CC(C)(O)[C@H](S[C@@H]1O[C@H](CO)[C@H](O)[C@H](n2cc(-c3cc(F)c(F)c(F)c3)nn2)[C@H]1O)C(=O)N1CCCC1 [Example 2.31.211S]", "Subject of test": "biotinylated human Gal-3 (hGal-3) (Homo sapiens)", "pIC50": 7.10}
{"Molecule": "COCCN(C)C(=O)C(S[C@@H]1O[C@H](CO)[C@H](O)[C@H](n2cc(-c3cc(F)c(F)c(F)c3)nn2)[C@H]1O)C(C)(C)O (some centres unmarked)", "Subject of test": "biotinylated human Gal-3 (hGal-3) (Homo sapiens)", "pIC50": 6.96}
{"Molecule": "CCN(C)C(=O)[C@@H](S[C@@H]1O[C@H](CO)[C@H](O)[C@H](n2cc(-c3cc(F)c(F)c(F)c3)nn2)[C@H]1O)C(O)(CC)CC [Example 2.32.203S.]", "Subject of test": "biotinylated human Gal-3 (hGal-3) (Homo sapiens)", "pIC50": 6.62}
{"Molecule": "CN(Cc1ccccc1)C(=O)C(S[C@@H]1O[C@H](CO)[C@H](O)[C@H](n2cc(-c3cc(F)c(F)c(F)c3)nn2)[C@H]1O)C(C)(C)O (some centres unmarked)", "Subject of test": "biotinylated human Gal-3 (hGal-3) (Homo sapiens)", "pIC50": 7.22}
{"Molecule": "CN(CCN1CCOCC1)C(=O)C(S[C@@H]1O[C@H](CO)[C@H](O)[C@H](n2cc(-c3cc(F)c(F)c(F)c3)nn2)[C@H]1O)C(C)(C)O (some centres unmarked)", "Subject of test": "biotinylated human Gal-3 (hGal-3) (Homo sapiens)", "pIC50": 6.96}
{"Molecule": "CCC(O)(CC)C(S[C@@H]1O[C@H](CO)[C@H](O)[C@H](n2cc(-c3cc(F)c(F)c(F)c3)nn2)[C@H]1O)C(=O)N(C)CC(C)(C)F (some centres unmarked)", "Subject of test": "biotinylated human Gal-3 (hGal-3) (Homo sapiens)", "pIC50": 6.44}
{"Molecule": "CN(CC1CC1)C(=O)C(S[C@@H]1O[C@H](CO)[C@H](O)[C@H](n2cc(-c3cc(F)c(F)c(F)c3)nn2)[C@H]1O)C(C)(C)O (some centres unmarked)", "Subject of test": "biotinylated human Gal-3 (hGal-3) (Homo sapiens)", "pIC50": 7.52}
{"Molecule": "CCN(C)C(=O)C(S[C@@H]1O[C@H](CO)[C@H](O)[C@H](n2cc(-c3cc(F)c(F)c(F)c3)nn2)[C@H]1O)C(O)(CC)CC (some centres unmarked)", "Subject of test": "biotinylated human Gal-3 (hGal-3) (Homo sapiens)", "pIC50": 6.31}
{"Molecule": "CN(CC(C)(C)C)C(=O)C(S[C@@H]1O[C@H](CO)[C@H](O)[C@H](n2cc(-c3cc(F)c(F)c(F)c3)nn2)[C@H]1O)C(C)(C)O (some centres unmarked)", "Subject of test": "biotinylated human Gal-3 (hGal-3) (Homo sapiens)", "pIC50": 6.17}

We next turn to a different molecule, shown below.
Query (molecule): CCN(C)C(=O)[C@H](S[C@@H]1O[C@H](CO)[C@H](O)[C@H](n2cc(-c3cc(F)c(F)c(F)c3)nn2)[C@H]1O)C(O)(CC)CC [Example 2.32.203R.] ; field requested: pIC50 5.34
